system: S. aureus DSM 20231; assay: Bliss interaction score (quartile over a dose matrix) (fitness difference); higher = more antagonism (negative = synergy);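 note: first quartile when negative (synergy) and third quartile when positive (antagonism)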
# if value of Bliss interaction score reaches -0.05, tag label 1; if it stays below, tag label 0

compound	group.label
C[C@H]1C[C@@H]2[C@H]([C@@H](O)C[C@@]3(C)[C@H]2CC[C@]3(O)C(=O)CO)[C@@]2(C)C=CC(=O)C=C12 [Methylprednisolone] + CC[C@H]1OC(=O)[C@H](C)C(=O)[C@H](C)[C@@H](O[C@@H]2O[C@H](C)C[C@H](N(C)C)[C@H]2O)[C@](C)(OC)C[C@@H](C)C(=O)[C@H](C)[C@H]2N(CCCCn3cnc(-c4cccnc4)c3)C(=O)O[C@]12C [Telithromycin]	label 0
C[C@H]1COc2c(N3CCN(C)CC3)c(F)cc3c(=O)c(C(=O)O)cn1c23 [Levofloxacin] + Cc1cc(NS(=O)(=O)c2ccc(N)cc2)no1 [Sulfamethoxazol]	label 0
C[C@H]1COc2c(N3CCN(C)CC3)c(F)cc3c(=O)c(C(=O)O)cn1c23 [Levofloxacin] + CCC[C@@H]1C[C@@H](C(=O)N[C@@H]([C@H]2O[C@H](SC)[C@H](O)[C@@H](O)[C@H]2O)[C@@H](C)O)N(C)C1 [Lincomycin]	label 1
CCN(CC)CCOC(=O)c1ccc(N)cc1 [Procaine] + COc1cc(Cc2cnc(N)nc2N)cc(OC)c1OC [Trimethoprim]	label 0
CC1(C)S[C@@H]2[C@H](NC(=O)[C@H](N)c3ccc(O)cc3)C(=O)N2[C@H]1C(=O)O [Amoxicillin] + CN[C@@H]1[C@H](O[C@H]2[C@H](O[C@H]3[C@H](O)[C@@H](O)[C@H](N=C(N)N)[C@@H](O)[C@@H]3N=C(N)N)O[C@@H](C)[C@]2(O)C=O)O[C@@H](CO)[C@H](O)[C@H]1O [Streptomycin]	label 0
CC1(C)S[C@@H]2[C@H](NC(=O)[C@H](N)c3ccc(O)cc3)C(=O)N2[C@H]1C(=O)O [Amoxicillin] + CN1C2=CC=CC=C2N=C3C1=CC=CC3=O [Pyocyanin]	label 1
CC1(C)S[C@@H]2[C@H](NC(=O)[C@H](N)c3ccc(O)cc3)C(=O)N2[C@H]1C(=O)O [Amoxicillin] + O=C(O)[C@H]1/C(=C/CO)O[C@@H]2CC(=O)N21 [Clavulanic]	label 0
CO/N=C(\C(=O)N[C@@H]1C(=O)N2C(C(=O)[O-])=C(C[N+]3(C)CCCC3)CS[C@H]12)c1csc(N)n1 [Cefepime] + CC1=C\[C@@H](O)CC(=O)Cc2nc(co2)C(=O)N2CCC=C2C(=O)O[C@H](C(C)C)[C@H](C)/C=C/C(=O)NC\C=C\1 [Virginiamycin M1]	label 1
CN(C)C(=O)C(CCN1CCC(O)(c2ccc(Cl)cc2)CC1)(c1ccccc1)c1ccccc1 [Loperamide] + CN[C@H](CC(C)C)C(=O)N[C@H]1C(=O)N[C@@H](CC(N)=O)C(=O)N[C@H]2C(=O)N[C@H]3C(=O)N[C@H](C(=O)N[C@H](C(=O)O)c4cc(O)cc(O)c4-c4cc3ccc4O)[C@H](O)c3ccc(c(Cl)c3)Oc3cc2cc(c3O[C@@H]2O[C@H](CO)[C@@H](O)[C@H](O)[C@H]2O[C@H]2C[C@](C)(N)[C@H](O)[C@H](C)O2)Oc2ccc(cc2Cl)[C@H]1O [Vancomycin]	label 0
CC1(C)S[C@@H]2[C@H](NC(=O)[C@H](N)c3ccc(O)cc3)C(=O)N2[C@H]1C(=O)O [Amoxicillin] + C[C@H]1COc2c(N3CCN(C)CC3)c(F)cc3c(=O)c(C(=O)O)cn1c23 [Levofloxacin]	label 1
CO/N=C(\C(=O)N[C@@H]1C(=O)N2C(C(=O)[O-])=C(C[N+]3(C)CCCC3)CS[C@H]12)c1csc(N)n1 [Cefepime] + Cc1onc(-c2ccccc2)c1C(=O)N[C@@H]1C(=O)N2[C@@H]1SC(C)(C)[C@@H]2C(=O)O [Oxacillin]	label 0
CN(C)C(=O)C(CCN1CCC(O)(c2ccc(Cl)cc2)CC1)(c1ccccc1)c1ccccc1 [Loperamide] + CO[C@@]12[C@H](COC(N)=O)C3=C(C(=O)C(C)=C(N)C3=O)N1C[C@@H]1N[C@@H]12 [MitomycinC]	label 1
CCCCCCCCCC(=O)N[C@@H](Cc1c[nH]c2ccccc12)C(=O)N[C@H](CC(N)=O)C(=O)N[C@@H](CC(=O)O)C(=O)N[C@@H]1C(=O)NCC(=O)N[C@@H](CCCN)C(=O)N[C@@H](CC(=O)O)C(=O)N[C@H](C)C(=O)N[C@@H](CC(=O)O)C(=O)NCC(=O)N[C@H](CO)C(=O)N[C@@H]([C@H](C)CC(=O)O)C(=O)N[C@@H](CC(=O)c2ccccc2N)C(=O)O[C@@H]1C [Daptomycin] + Cn1nnc(-c2ccc(-c3ccc(N4C[C@H](CO)OC4=O)cc3F)cn2)n1 [Tedizolid]	label 1
C[C@H]1COc2c(N3CCN(C)CC3)c(F)cc3c(=O)c(C(=O)O)cn1c23 [Levofloxacin] + CN(C)c1cc(NC(=O)CNC(C)(C)C)c(O)c2c1C[C@H]1C[C@H]3[C@H](N(C)C)C(O)=C(C(N)=O)C(=O)[C@@]3(O)C(O)=C1C2=O [Tigecycline]	label 0
